# study system: human Cereblon WT GST-tagged protein (Homo sapiens, UniProt Q96SW2)
# Construct: purchased CISBIO 64BDCRBNPEH
# Sequence (Q96SW2 whole entry): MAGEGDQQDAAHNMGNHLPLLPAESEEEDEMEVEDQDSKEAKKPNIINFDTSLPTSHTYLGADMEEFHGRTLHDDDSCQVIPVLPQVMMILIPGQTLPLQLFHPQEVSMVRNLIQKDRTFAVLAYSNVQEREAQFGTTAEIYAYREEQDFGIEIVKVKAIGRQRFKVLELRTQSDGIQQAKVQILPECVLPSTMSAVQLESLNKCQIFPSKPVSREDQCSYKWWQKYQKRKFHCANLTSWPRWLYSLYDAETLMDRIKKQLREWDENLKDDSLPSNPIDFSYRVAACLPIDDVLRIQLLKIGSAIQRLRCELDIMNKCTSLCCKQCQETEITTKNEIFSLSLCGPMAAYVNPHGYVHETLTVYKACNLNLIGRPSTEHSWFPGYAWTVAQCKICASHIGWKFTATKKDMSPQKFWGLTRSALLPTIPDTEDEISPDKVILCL
# assay comment: CRBN-binding affinity, HTRF (CEREBLON BINDING kit)
# measurement setup: read-out: Inhibition Rate at 0.5 µM (%)
Measured inhibition at 0.5 µM values are reported for all entries that follow.

| compound | inhibition at 0.5 µM |
| --- | --- |
| O=C1CCC(N2Cc3cc(CN4CCN(c5ccc(F)cc5)CC4)ccc3C2=S)C(=O)N1 (centres unmarked) [GT-08240] | 53 to 60% |
| O=C1CCC(N2Cc3c(CN4CC=C(c5cccs5)CC4)cccc3C2=S)C(=O)N1 (centres unmarked) [GT-08299] | 53 to 60% |
| Cc1nc(N2CCN(Cc3cccc4c3CN(C3CCC(=O)NC3=O)C4=S)CC2)c2c(-c3ccccc3)csc2n1 (centres unmarked) [GT-08921] | 30 to 40% |
| Cc1ccc(Cl)cc1N1CCN(Cc2ccc3c(c2)CN(C2CCC(=O)NC2=O)C3=S)CC1 (centres unmarked) [GT-08615] | 30 to 40% |
| Cc1nc(C2CCN(Cc3cccc4c3CN(C3CCC(=O)NC3=O)C4=S)CC2)c2c(-c3ccccc3)csc2n1 (centres unmarked) [GT-08931] | 40 to 53% |
| O=C1CCC(N2Cc3c(CN4CCN(c5cccc(F)c5F)CC4)cccc3C2=S)C(=O)N1 (centres unmarked) [GT-08268] | 40 to 53% |
| O=C1CCC(N2Cc3c(CN4CCN(c5n[nH]c6cc(F)ccc56)CC4)cccc3C2=S)C(=O)N1 (centres unmarked) [GT-08840] | 60 to 80% |
| O=C1CCC(N2Cc3c(CN4CCC(c5ccnc(Cl)c5Cl)CC4)cccc3C2=S)C(=O)N1 (centres unmarked) [GT-08458] | 53 to 60% |

---

# study system: human Cereblon WT GST-tagged protein (Homo sapiens, UniProt Q96SW2)
# Construct: purchased CISBIO 64BDCRBNPEH
# assay comment: CRBN-binding affinity, HTRF (CEREBLON BINDING kit)
# measurement setup: read-out: Inhibition Rate at 0.5 µM (%)

| compound | study system | inhibition at 0.5 µM |
| --- | --- | --- |
| O=C1CCC(N2Cc3cc(CN4CCN(c5nccc(Cl)c5F)CC4)ccc3C2=S)C(=O)N1 (centres unmarked) [GT-09244] | human Cereblon WT GST-tagged protein (Homo sapiens, UniProt Q96SW2) | 60 to 80% |
| CC1(C)CCC(CN2CC3CCC(C2)N3Cc2cccc3c2CN(C2CCC(=O)NC2=O)C3=S)=C(c2ccc(Cl)cc2)C1 (centres unmarked) [GT-08292] | human Cereblon WT GST-tagged protein (Homo sapiens, UniProt Q96SW2) | 30 to 40% |
| O=C1CCC(N2Cc3cc(CN4C[C@H]5C[C@@H]4CN5c4cccc(Cl)c4Cl)ccc3C2=S)C(=O)N1 (some centres unmarked) [GT-08477] | human Cereblon WT GST-tagged protein (Homo sapiens, UniProt Q96SW2) | 53 to 60% |
| O=C1CCC(N2Cc3c(CN4CCN(c5nc(N6CCOCC6)nc6c5SCC6)CC4)cccc3C2=S)C(=O)N1 (centres unmarked) [GT-08968] | human Cereblon WT GST-tagged protein (Homo sapiens, UniProt Q96SW2) | 60 to 80% |
| O=C1CCC(N2Cc3cc(CN4CCC(n5cnc6cc(F)ccc65)CC4)ccc3C2=S)C(=O)N1 (centres unmarked) [GT-09262] | human Cereblon WT GST-tagged protein (Homo sapiens, UniProt Q96SW2) | 53 to 60% |
| O=C1CCC(N2Cc3cc(CN4CCN(c5cccc(F)n5)CC4)ccc3C2=S)C(=O)N1 (centres unmarked) [GT-09221] | human Cereblon WT GST-tagged protein (Homo sapiens, UniProt Q96SW2) | 80 to 100% |
| Cc1cc2c(C3=CCN(Cc4cccc5c4CN(C4CCC(=O)NC4=O)C5=S)CC3)ncnc2s1 (centres unmarked) [GT-08947] | human Cereblon WT GST-tagged protein (Homo sapiens, UniProt Q96SW2) | 60 to 80% |
| O=C1CCC(N2Cc3c(CN4CCN(c5ccccn5)CC4)cccc3C2=S)C(=O)N1 (centres unmarked) [GT-08691] | human Cereblon WT GST-tagged protein (Homo sapiens, UniProt Q96SW2) | 60 to 80% |

---

# study system: human Cereblon WT GST-tagged protein (Homo sapiens, UniProt Q96SW2)
# Construct: purchased CISBIO 64BDCRBNPEH
# assay comment: CRBN-binding affinity, HTRF (CEREBLON BINDING kit)
# measurement setup: read-out: Inhibition Rate at 0.5 µM (%)
Measured inhibition at 0.5 µM values are reported for all entries that follow.

| compound | inhibition at 0.5 µM |
| --- | --- |
| O=C1CCC(N2Cc3cc(CN4CCN(c5ccccc5Br)CC4)ccc3C2=S)C(=O)N1 (stereo not shown) | 40 to 53% |
| O=C1CCC(N2Cc3c(CN4CC5CC(C4)N5c4cccc(Cl)c4Cl)cccc3C2=S)C(=O)N1 (stereo not shown) | 30 to 40% |
| O=C1CCC(N2Cc3cc(CN4CCN(c5ccc(C(F)(F)F)cc5)CC4)ccc3C2=S)C(=O)N1 (stereo not shown) | 40 to 53% |
| CC1(C)CCC(CN2CC3CCC2CN3Cc2cccc3c2CN(C2CCC(=O)NC2=O)C3=S)=C(c2ccc(Cl)cc2)C1 (stereo not shown) | 30 to 40% |

---

Measured inhibition at 2 µM values are reported for all entries that follow.
# study system: human Cereblon WT GST-tagged protein (Homo sapiens, UniProt Q96SW2)
# Construct: purchased CISBIO 64BDCRBNPEH
# assay comment: CRBN-binding affinity, HTRF (CEREBLON BINDING kit)
# measurement setup: read-out: Inhibition Rate at 2 µM (%)

| compound | inhibition at 2 µM |
| --- | --- |
| O=C1CCC(N2Cc3cc(CN4CCN(c5ncnc6sccc56)CC4)ccc3C2=S)C(=O)N1 (centres unmarked) | 80 to 100% |
| CC(C)c1cc2c(C3=CCN(Cc4ccc5c(c4)CN(C4CCC(=O)NC4=O)C5=S)CC3)ncnc2s1 (centres unmarked) | 80 to 100% |
| O=C1CCC(N2Cc3cc(CN4CCN(c5ncc(C(F)(F)F)cc5Cl)CC4)ccc3C2=S)C(=O)N1 (centres unmarked) | 80 to 100% |
| Cc1nc(C2CCN(Cc3ccc4c(c3)CN(C3CCC(=O)NC3=O)C4=S)CC2)c2c3c(sc2n1)CCC3 (centres unmarked) | 80 to 100% |
| Cc1cc2c(C3=CCN(Cc4cccc5c4CN(C4CCC(=O)NC4=O)C5=S)CC3)ncnc2s1 (centres unmarked) | 80 to 100% |
| O=C1CCC(N2Cc3cc(CN4CCN(c5ccc(F)cn5)CC4)ccc3C2=S)C(=O)N1 (centres unmarked) | 80 to 100% |
| O=C1CCC(N2Cc3cc(CN4CCN(c5ncccn5)CC4)ccc3C2=S)C(=O)N1 (centres unmarked) | 80 to 100% |
| Cc1ccc(N2CCN(Cc3cccc4c3CN(C3CCC(=O)NC3=O)C4=S)CC2)c(C)c1 (centres unmarked) | 60 to 80% |
| Cc1cccc(N2CCN(Cc3ccc4c(c3)CN(C3CCC(=O)NC3=O)C4=S)CC2)n1 (centres unmarked) | 80 to 100% |
| O=C1CCC(N2Cc3cc(CN4CCN(c5nc6c(c(N7CCOCC7)n5)SCC6)CC4)ccc3C2=S)C(=O)N1 (centres unmarked) | 80 to 100% |
| O=C1CCC(N2Cc3cc(CN4CCN(c5c(F)cccc5F)CC4)ccc3C2=S)C(=O)N1 (centres unmarked) | 80 to 100% |
| O=C1CCC(N2Cc3c(CN4CCN(c5nsc6ccccc56)CC4)cccc3C2=S)C(=O)N1 (centres unmarked) | 80 to 100% |
| O=C1CCC(N2Cc3cc(CN4CC=C(c5ncnc6sc7c(c56)CCC7)CC4)ccc3C2=S)C(=O)N1 (centres unmarked) | 80 to 100% |
| O=C1CCC(N2Cc3cc(CN4CCN(c5cnccn5)CC4)ccc3C2=S)C(=O)N1 (centres unmarked) | 80 to 100% |
| O=C1CCC(N2Cc3cc(CN4CC5CCC4CN5C(c4ccccc4)c4ccccc4)ccc3C2=S)C(=O)N1 (centres unmarked) | 80 to 100% |
| O=C1CCC(N2Cc3cc(CN4CCC(N5CCOc6cc(F)ccc65)CC4)ccc3C2=S)C(=O)N1 (centres unmarked) | 80 to 100% |
| O=C1CCC(N2Cc3c(CN4CCN(c5cnnc(Cl)c5Cl)CC4)cccc3C2=S)C(=O)N1 (centres unmarked) | 80 to 100% |
| O=C1CCC(N2Cc3cc(CN4CCN(c5ncncn5)CC4)ccc3C2=S)C(=O)N1 (centres unmarked) | 80 to 100% |
| O=C1CCC(N2Cc3c(CN4CC=C(c5ccoc5)CC4)cccc3C2=S)C(=O)N1 (centres unmarked) | 80 to 100% |
| O=C1CCC(N2Cc3cc(CN4CCN(CC5=C(c6ccc(F)cc6)CCCC5)CC4)ccc3C2=S)C(=O)N1 (centres unmarked) | 80 to 100% |
| O=C1CCC(N2Cc3cc(CN4CCN(c5cc(F)cc(F)c5)CC4)ccc3C2=S)C(=O)N1 (centres unmarked) | 80 to 100% |
| O=C1CCC(N2Cc3c(CN4CCN(c5ccccc5)CC4)cccc3C2=S)C(=O)N1 (centres unmarked) | 60 to 80% |
| O=C1CCC(N2Cc3cc(CN4CC=C(c5ccoc5)CC4)ccc3C2=S)C(=O)N1 (centres unmarked) | 80 to 100% |
| O=C1CCC(N2Cc3cc(CN4CCC(c5c[nH]c6ncccc56)CC4)ccc3C2=S)C(=O)N1 (centres unmarked) | 80 to 100% |
| O=C1CCC(N2Cc3c(CN4CCC(c5ncnc6sc(-c7ccccc7)cc56)CC4)cccc3C2=S)C(=O)N1 (centres unmarked) | 60 to 80% |
| CC1(C)CC(c2ccc(Cl)cc2)=C(CN2CCN(Cc3cccc4c3CN(C3CCC(=O)NC3=O)C4=S)CC2)CO1 (centres unmarked) | 60 to 80% |
| O=C1CCC(N2Cc3c(CN4CCN(c5cccc(Br)c5)CC4)cccc3C2=S)C(=O)N1 (centres unmarked) | 60 to 80% |
| O=C1CCC(N2Cc3cc(CN4C[C@@H]5C[C@H]4CN5C(c4ccccc4)c4ccccc4)ccc3C2=S)C(=O)N1 (some centres unmarked) | 80 to 100% |
| O=C1CCC(N2Cc3c(CN4CCN(c5cc(Cl)ccn5)CC4)cccc3C2=S)C(=O)N1 (centres unmarked) | 80 to 100% |
| CC1(C)CCC(CN2CCN(Cc3cccc4c3CN(C3CCC(=O)NC3=O)C4=S)CC2)=C(c2ccc(Cl)cc2)C1 (centres unmarked) | 60 to 80% |
| O=C1CCC(N2Cc3c(CN4CCC(n5c(=O)[nH]c6cc(F)ccc65)CC4)cccc3C2=S)C(=O)N1 (centres unmarked) | 80 to 100% |
| O=C1CCC(N2Cc3cc(CN4CCN(c5ccnc(Br)c5F)CC4)ccc3C2=S)C(=O)N1 (centres unmarked) | 80 to 100% |

Recorded values, source patent EP4745135A1.
